From: ChEMBL document CHEMBL1154389

Measured log10 IC50, listed per entry.
# target_entity: Tyrosine-protein kinase Lck (Homo sapiens)
# Sequence (P06239 whole entry): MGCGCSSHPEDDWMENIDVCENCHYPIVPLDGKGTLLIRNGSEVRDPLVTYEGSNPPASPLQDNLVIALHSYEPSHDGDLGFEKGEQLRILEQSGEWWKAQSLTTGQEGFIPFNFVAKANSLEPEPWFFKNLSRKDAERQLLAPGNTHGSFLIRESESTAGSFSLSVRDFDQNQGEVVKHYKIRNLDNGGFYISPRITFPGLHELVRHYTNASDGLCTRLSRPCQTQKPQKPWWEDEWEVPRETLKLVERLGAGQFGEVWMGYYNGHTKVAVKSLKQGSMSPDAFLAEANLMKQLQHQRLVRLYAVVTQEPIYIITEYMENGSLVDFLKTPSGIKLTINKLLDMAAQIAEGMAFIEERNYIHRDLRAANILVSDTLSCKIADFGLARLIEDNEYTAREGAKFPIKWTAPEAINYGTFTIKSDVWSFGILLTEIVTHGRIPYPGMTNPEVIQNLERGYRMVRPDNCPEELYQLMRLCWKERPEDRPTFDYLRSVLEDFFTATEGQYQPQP
Scale: log10; quantity: IC50; unit before log: nM

Sample records with log10 IC50:
[[record]]
compound_smiles = "CCN(CC)CCCCNc1cc(-n2c(Nc3cc(C(=O)Nc4cccc(C)c4)ccc3C)nc3ccccc32)ncn1"
target_entity = "Tyrosine-protein kinase Lck (Homo sapiens)"
value = 1.30

[[record]]
compound_smiles = "Cc1ccc(NC(=O)c2cccc(C(F)(F)F)c2)cc1Nc1nc2ccccc2n1-c1cc(NCCCCN)ncn1"
target_entity = "Tyrosine-protein kinase Lck (Homo sapiens)"
value = 1.11

[[record]]
compound_smiles = "Cc1ccc(NC(=O)c2cccc(C(F)(F)F)c2)cc1Nc1nc2ccccc2n1-c1cc(NCCO)ncn1"
target_entity = "Tyrosine-protein kinase Lck (Homo sapiens)"
value = 1.43

[[record]]
compound_smiles = "Cc1cn(-c2cc(NC(=O)c3ccc(C)c(Nc4nc5ccccc5n4-c4cc(N)ncn4)c3)cc(C(F)(F)F)c2)cn1"
target_entity = "Tyrosine-protein kinase Lck (Homo sapiens)"
value = 2.38


API: value(readout= log10 IC50, system= Tyrosine-protein kinase Lck (Homo sapiens), query= Cc1ccc(C(=O)Nc2cccc(C(C)C)c2)cc1Nc1nc2ccccc2n1-c1cc(N)ncn1 )
1.48

API: value(readout= log10 IC50, system= Tyrosine-protein kinase Lck (Homo sapiens), query= Cc1cccc(NC(=O)c2ccc(C)c(Nc3nc4ccccc4n3-c3cc(NCCN4CCN(C)CC4)ncn3)c2)c1 )
1.58

###

# target_entity: Tyrosine-protein kinase HCK (Homo sapiens)
# Sequence (P08631 whole entry): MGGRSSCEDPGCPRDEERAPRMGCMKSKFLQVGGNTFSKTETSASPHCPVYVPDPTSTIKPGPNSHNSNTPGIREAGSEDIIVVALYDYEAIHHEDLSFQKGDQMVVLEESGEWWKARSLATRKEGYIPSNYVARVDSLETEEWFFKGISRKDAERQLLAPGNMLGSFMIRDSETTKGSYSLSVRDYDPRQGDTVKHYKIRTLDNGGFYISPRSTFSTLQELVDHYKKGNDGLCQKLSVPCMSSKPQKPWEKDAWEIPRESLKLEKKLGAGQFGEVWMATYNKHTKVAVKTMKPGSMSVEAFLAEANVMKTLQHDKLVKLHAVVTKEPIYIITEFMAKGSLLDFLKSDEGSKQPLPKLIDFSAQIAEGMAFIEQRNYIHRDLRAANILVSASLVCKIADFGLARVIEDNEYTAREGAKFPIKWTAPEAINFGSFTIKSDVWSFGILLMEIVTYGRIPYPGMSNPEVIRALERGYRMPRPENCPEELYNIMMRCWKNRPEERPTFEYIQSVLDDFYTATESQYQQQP
pIC50: −log10 of the molar value.
Measured pIC50, listed per entry.

Sample records with pIC50:
[[record]]
compound_smiles = "Cc1cccc(NC(=O)c2ccc(C)c(Nc3nc4ccccc4n3-c3cc(NCCN4CCN(C)CC4)ncn3)c2)c1"
target_entity = "Tyrosine-protein kinase HCK (Homo sapiens)"
recorded_endpoint = "pIC50"
value = "< 5.60"

[[record]]
compound_smiles = "Cc1ccc(NC(=O)c2cccc(Cl)c2)cc1Nc1nc2ccccc2n1-c1cc(N)ncn1"
target_entity = "Tyrosine-protein kinase HCK (Homo sapiens)"
recorded_endpoint = "pIC50"
value = 6.32

[[record]]
compound_smiles = "Cc1ccc(C(=O)Nc2cccc(C(F)(F)F)c2)cc1Nc1nc2ccccc2n1-c1ncnc(N)c1C"
target_entity = "Tyrosine-protein kinase HCK (Homo sapiens)"
recorded_endpoint = "pIC50"
value = "< 5.60"

[[record]]
compound_smiles = "Cc1ccc(C(=O)Nc2cccc(C(F)(F)F)c2)cc1Nc1nc2ccccc2n1-c1cc(N)ncn1"
target_entity = "Tyrosine-protein kinase HCK (Homo sapiens)"
recorded_endpoint = "pIC50"
value = "< 5.60"

[[record]]
compound_smiles = "Cc1cn(-c2cc(NC(=O)c3ccc(C)c(Nc4nc5ccccc5n4-c4cc(N)ncn4)c3)cc(C(F)(F)F)c2)cn1"
target_entity = "Tyrosine-protein kinase HCK (Homo sapiens)"
recorded_endpoint = "pIC50"
value = 6.04


API: value(readout= pIC50, system= Tyrosine-protein kinase HCK (Homo sapiens), query= Cc1ccc(NC(=O)c2cccc(C(F)(F)F)c2)cc1Nc1nc2ccccc2n1-c1cc(NCCN)ncn1 )
< 5.60

###

IC50 values recorded for Tyrosine-protein kinase HCK (Homo sapiens, UniProt P08631)

Sample records with IC50:
[[record]]
compound_smiles = "Cc1cc(NC(=O)c2ccc(C)c(Nc3nc4ccccc4n3-c3cc(N)ncn3)c2)ccn1"
target_entity = "Tyrosine-protein kinase HCK (Homo sapiens, UniProt P08631)"
value = "> 2.5 µM"

[[record]]
compound_smiles = "Cc1ccc(C(=O)Nc2cccc3cnccc23)cc1Nc1nc2ccccc2n1-c1cc(N)ncn1"
target_entity = "Tyrosine-protein kinase HCK (Homo sapiens, UniProt P08631)"
value = "> 2.5 µM"


Query molecule follows.
# input molecule: Cc1ccc(C(=O)Nc2cccc(C(N)=O)c2)cc1Nc1nc2ccccc2n1-c1cc(N)ncn1 ; wanted: its IC50
> 2.5 µM

###

pIC50 values recorded for Tyrosine-protein kinase Lck (Homo sapiens)
For clarity, pIC50 is expressed as the negative log10 of concentration in mol/L.

Sample records with pIC50:
[[record]]
compound_smiles = "Cc1ccc(C(=O)Nc2cccc(C(F)(F)F)c2)cc1Nc1nc2ccccc2n1-c1ncnc(NCCCN2CCN(C)CC2)n1"
target_entity = "Tyrosine-protein kinase Lck (Homo sapiens)"
value = 7.92

[[record]]
compound_smiles = "Cc1cccc(NC(=O)c2ccc(C)c(Nc3nc4ccccc4n3-c3cc(NCCCN4CCN(C)CC4)ncn3)c2)c1"
target_entity = "Tyrosine-protein kinase Lck (Homo sapiens)"
value = 7.72

[[record]]
compound_smiles = "Cc1ccc(NC(=O)c2cccc(C(F)(F)F)c2)cc1Nc1nc2ccccc2n1-c1cc(NCCCN)ncn1"
target_entity = "Tyrosine-protein kinase Lck (Homo sapiens)"
value = 7.64

[[record]]
compound_smiles = "Cc1ccc(NC(=O)c2cccc(C(F)(F)F)c2)cc1Nc1nc2ccccc2n1-c1cc(NCCN)ncn1"
target_entity = "Tyrosine-protein kinase Lck (Homo sapiens)"
value = 6.64

[[record]]
compound_smiles = "Cc1ccc(NC(=O)c2cc(CN3CCN(C)CC3)n(C(C)(C)C)n2)cc1Nc1nc2ccccc2n1-c1cc(N)ncn1"
target_entity = "Tyrosine-protein kinase Lck (Homo sapiens)"
value = 8.10

[[record]]
compound_smiles = "Cc1ccc(C(=O)Nc2ccccc2)cc1Nc1nc2ccccc2n1-c1cc(N)ncn1"
target_entity = "Tyrosine-protein kinase Lck (Homo sapiens)"
value = 5.97

[[record]]
compound_smiles = "Cc1cccc(C(=O)Nc2ccc(C)c(Nc3nc4ccccc4n3-c3cc(N)ncn3)c2)c1"
target_entity = "Tyrosine-protein kinase Lck (Homo sapiens)"
value = 7.15

[[record]]
compound_smiles = "Cc1ccc(NC(=O)c2cc(C(C)(C)C)nn2C)cc1Nc1nc2ccccc2n1-c1cc(N)ncn1"
target_entity = "Tyrosine-protein kinase Lck (Homo sapiens)"
value = 6.50

[[record]]
compound_smiles = "Cc1ccc(C(=O)Nc2cccc(C(F)(F)F)c2)cc1Nc1nc2ccccc2n1-c1cc(N)ncn1"
target_entity = "Tyrosine-protein kinase Lck (Homo sapiens)"
value = 7.23


API: value(readout= pIC50, system= Tyrosine-protein kinase Lck (Homo sapiens), query= Cc1ccc(C(=O)Nc2cccc(Cl)c2)cc1Nc1nc2ccccc2n1-c1cc(N)ncn1 )
7.20
